Assay text: Quantitative High-Throughput drug screen in 47 multiple myeloma cell lines against the NCATS MIPE library collection: JJN3_DSMZ cell viability assay (AID 1918966; also: nearly all actives have a fitted effect of over 50% in size; also: potency is read from the fitted curve at half-maximal effect)
Protocol conditions: JJN3 myeloma cells viability, CellTiter-Glo ATP, 48 h; series mostly up to 45.8 µM
Inconclusive results are not listed. The source made the active and inactive calls. Calls follow the shape of the dose curve; as a rule, active = well fitted cell-killing curve with a large enough effect; inconclusive = small, poorly fitted or top-dose-only effect, or effect the other way; inactive = no such curve, though single readings can be large or run the other way.
Readout kind: Potency

The cases that follow already have their Potency on record.
Compound	Potency
CN(C)CCCNC(=O)c1ccc(-c2cc(O)c3ncccc3c2)cc1	20.9 µM (active)
O=C(CO)N1CCC(c2[nH]nc(-c3ccc(Cl)cc3)c2-c2ccncn2)CC1	1.66 µM (active)
CC1C(=O)OC2C(O)C34C5CC(C(C)(C)C)C36C(OC(=O)C6O)OC4(C(=O)O5)C12O (centres undefined)	inactive
COc1ccc(-c2nc3ccc(C4=NNC(=O)CC4C)cc3[nH]2)cc1 (centres undefined)	inactive
C[C@@H](O)[C@H]1C(=O)N2C(C(=O)OCOC(=O)C(C)(C)C)=C(SC3CN(C4=NCCS4)C3)[C@H](C)[C@H]12	16.6 µM (active)
CN1CC(=O)NC1=NC(=O)Nc1cccc(Cl)c1	8.33 µM (active)
Cn1c(=O)c(-c2c(Cl)cccc2Cl)cc2cnc(Nc3cccc(C(=O)O)c3)nc21	4.18 µM (active)
COc1cc(C=CC(=O)O)ccc1O	inactive

Q: Look up Potency: `COC(=O)[C@H](c1ccccc1Cl)N1CCc2sccc2C1`
Result: 20.9 µM (active)

Q: Param item: `CN[C@@H](C)[C@H]1[C@H](O)C[C@@]2(C)[C@@H]3CC[C@H]4C(C)(C)[C@@H](NC)CC[C@@]45C[C@@]35CC[C@]12C`
Result: inactive

Q: Param item: `CC(C)CN(C[C@H](O)[C@H](Cc1ccccc1)NC(=O)O[C@H]1CCOC1)S(=O)(=O)c1ccc(N)cc1`
Result: 1.87 µM (active)

Q: Param item: `CO[C@H]1/C=C\O[C@@]2(C)Oc3c(C)c(O)c4c(O)c(c(C=NN5CCN(C6CCCC6)CC5)c(O)c4c3C2=O)NC(=O)C(C)=CC=C[C@H](C)[C@H](O)[C@@H](C)[C@@H](O)[C@@H](C)[C@H](OC(C)=O)[C@H]1C`
Result: 6.62 µM (active)

Q: Param item: N#CC(c1ccnc(NCCc2cccnc2)n1)c1nc2ccccc2s1 (centres undefined)
Result: 10.5 µM (active)

Q: Param item: `COc1cc([C@H]2Oc3cc([C@H]4Oc5cc(O)cc(O)c5C(=O)[C@H]4O)ccc3O[C@H]2CO)ccc1O`
Result: 9.35 µM (active)

Q: Param item: `CC(C)(CO)[C@@H](O)C(=O)NCCC(=O)O`
Result: inactive

Q: Param item: `COc1cc2c(cc1Cc1cccc(Cl)c1F)c(=O)c(C(=O)O)cn2[C@H](CO)C(C)C`
Result: 16.6 µM (active)

Q: Param item: `Clc1ccc(C2(c3ccc(-c4cn[nH]c4)cc3)CCNCC2)cc1`
Result: 20.9 µM (active)

Q: Param item: `O=C(O)CCC=CCC[C@@H]1[C@H](N2CCCCC2)[C@@H](O)C[C@@H]1OCc1ccc(-c2ccccc2)cc1`
Result: inactive

Q: Param item: `CNC(=O)c1cc(Oc2ccc(NC(=O)Nc3ccc(Cl)c(C(F)(F)F)c3)c(F)c2)ccn1`
Result: 29.6 µM (active)

From: PubChem BioAssay (NCATS)
